System: HL-60
Experiment: Cytotoxicity against human HL-60 cells assessed as cell viability at 10 uM relative to control
Assay type: functional
Settings: read-out: Activity
READOUT TYPE: viability at 10 µM (%)

[[record]]
molecule = "O=C1C=C2C=C[C@@H]3C[C@]2(CN3Cc2ccccc2)O1"
target = "HL-60"
readout_type = "viability at 10 µM"
reading_unit = "%"
obs_value = 3

[[record]]
molecule = "CC(C)CN1C[C@]23C[C@H]1C=CC2=CC(=O)O3"
target = "HL-60"
readout_type = "viability at 10 µM"
reading_unit = "%"
obs_value = 1

[[record]]
molecule = "O=C1C=C2C=C[C@@H]3C[C@@]2(O1)[C@H]1CCCCN31 [SECURININE]"
target = "HL-60"
readout_type = "viability at 10 µM"
reading_unit = "%"
obs_value = 0.4

[[record]]
molecule = "O=C1C=C2C(I)=C[C@@H]3C[C@]2(CN3Cc2ccccc2)O1"
target = "HL-60"
readout_type = "viability at 10 µM"
reading_unit = "%"
obs_value = 0


====

viability at 10 µM for assorted molecules
Tested on: HCT-116
Test: Cytotoxicity against human HCT-116 cells assessed as cell viability at 10 uM relative to control
Format: functional
Details: read-out: Activity
READOUT TYPE: viability at 10 µM

[[record]]
item_smiles = "CC(C)CN1C[C@]23C[C@H]1C=CC2=CC(=O)O3"
target = "HCT-116"
readout_type = "viability at 10 µM"
obs_value = "78%"

[[record]]
item_smiles = "O=C1C=C2C=C[C@@H]3C[C@@]2(O1)[C@H]1CCCCN31"
target = "HCT-116"
readout_type = "viability at 10 µM"
obs_value = "13%"

[[record]]
item_smiles = "O=C1C=C2C=C[C@@H]3C[C@]2(CN3Cc2ccccc2)O1"
target = "HCT-116"
readout_type = "viability at 10 µM"
obs_value = "86%"

[[record]]
item_smiles = "O=C1C=C2C(I)=C[C@@H]3C[C@]2(CN3Cc2ccccc2)O1"
target = "HCT-116"
readout_type = "viability at 10 µM"
obs_value = "1%"


====

System: HL-60
Assay: Cytotoxicity against human HL-60 cells assessed as reduction in cell viability
Format: functional, cell-based
Details: Homo sapiens, HL-60; read-out: IC50
pIC50: −log10 of the molar value.
READOUT TYPE: pIC50

[[record]]
item_smiles = "O=C1C=C2C=C[C@@H]3C[C@@]2(O1)[C@H]1CCCCN31"
obs_value = 7.00

[[record]]
item_smiles = "O=C1C=C2C(I)=C[C@@H]3C[C@]2(CN3Cc2ccccc2)O1"
obs_value = 6.46

[[record]]
item_smiles = "O=C1C=C2C=C[C@@H]3C[C@]2(CN3Cc2ccccc2)O1"
obs_value = 7.00

